meta.source: patent US8067599B2

- target_of_assay: fusion protein corresponding to mouse Abl (27-end) (Mus musculus)
- Construct: fusion protein corresponding to mouse Abl (27-end)
- Sequence (P00520 27-1123 limits assumed): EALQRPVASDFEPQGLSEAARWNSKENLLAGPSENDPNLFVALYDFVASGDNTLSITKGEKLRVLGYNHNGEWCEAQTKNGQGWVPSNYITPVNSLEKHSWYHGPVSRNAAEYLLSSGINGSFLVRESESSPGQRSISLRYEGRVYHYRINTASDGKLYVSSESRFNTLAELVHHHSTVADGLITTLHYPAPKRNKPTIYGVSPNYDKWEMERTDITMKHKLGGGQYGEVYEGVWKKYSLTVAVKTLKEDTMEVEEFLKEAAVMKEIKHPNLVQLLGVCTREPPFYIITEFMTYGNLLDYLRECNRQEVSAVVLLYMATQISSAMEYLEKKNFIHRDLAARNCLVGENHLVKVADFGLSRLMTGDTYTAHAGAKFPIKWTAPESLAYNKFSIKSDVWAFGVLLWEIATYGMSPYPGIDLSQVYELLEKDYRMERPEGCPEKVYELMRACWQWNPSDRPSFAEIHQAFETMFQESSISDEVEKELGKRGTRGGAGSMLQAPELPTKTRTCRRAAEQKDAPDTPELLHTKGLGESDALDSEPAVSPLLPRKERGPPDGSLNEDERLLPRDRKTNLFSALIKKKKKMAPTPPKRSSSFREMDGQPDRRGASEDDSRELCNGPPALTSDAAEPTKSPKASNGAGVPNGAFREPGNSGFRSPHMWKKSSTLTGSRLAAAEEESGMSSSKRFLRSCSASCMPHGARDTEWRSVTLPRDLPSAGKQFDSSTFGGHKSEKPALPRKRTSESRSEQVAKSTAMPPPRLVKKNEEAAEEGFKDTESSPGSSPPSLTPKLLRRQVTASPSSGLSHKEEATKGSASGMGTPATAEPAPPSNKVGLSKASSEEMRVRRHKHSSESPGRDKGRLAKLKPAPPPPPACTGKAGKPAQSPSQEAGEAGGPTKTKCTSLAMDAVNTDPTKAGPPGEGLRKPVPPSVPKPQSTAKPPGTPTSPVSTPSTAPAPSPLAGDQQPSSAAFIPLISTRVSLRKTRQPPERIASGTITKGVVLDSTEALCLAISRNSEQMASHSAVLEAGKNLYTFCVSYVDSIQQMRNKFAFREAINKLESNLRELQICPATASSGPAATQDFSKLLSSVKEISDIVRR
- test_summary: IC50 determination for inhibitors of Abl kinase (IMAP fluorescence polarization)
- stated_conditions: 22.8 uM ATP, 37° C., 60 minutes; read-out: IC50 Abl kinase inhibition
observable: IC50

GET /values?readout=IC50&item= O=C(Nc1ccc(Cl)c(C(=O)Nc2cnc3[nH]ccc3c2)c1)c1cc(-c2ccccc2Cl)no1 [Example 4-1] 0.005 to 1 µM

Next up: Cc1ccc(NC(=O)c2ccccc2)cc1C(=O)Nc1cnc2[nH]cnc2c1 [Example 6-1] 0.005 to 1 µM

Now the molecule CN(C)CCOc1cccc(-c2ccc(C(=O)Nc3ccc(Cl)c(C(=O)Nc4cnc5[nH]ccc5c4)c3)cc2)c1 [Example 1-1] 0.005 to 1 µM

----------
- target_of_assay: human recombinant PDGFR beta (Homo sapiens, UniProt P09619)
- Sequence (P09619 33-1106): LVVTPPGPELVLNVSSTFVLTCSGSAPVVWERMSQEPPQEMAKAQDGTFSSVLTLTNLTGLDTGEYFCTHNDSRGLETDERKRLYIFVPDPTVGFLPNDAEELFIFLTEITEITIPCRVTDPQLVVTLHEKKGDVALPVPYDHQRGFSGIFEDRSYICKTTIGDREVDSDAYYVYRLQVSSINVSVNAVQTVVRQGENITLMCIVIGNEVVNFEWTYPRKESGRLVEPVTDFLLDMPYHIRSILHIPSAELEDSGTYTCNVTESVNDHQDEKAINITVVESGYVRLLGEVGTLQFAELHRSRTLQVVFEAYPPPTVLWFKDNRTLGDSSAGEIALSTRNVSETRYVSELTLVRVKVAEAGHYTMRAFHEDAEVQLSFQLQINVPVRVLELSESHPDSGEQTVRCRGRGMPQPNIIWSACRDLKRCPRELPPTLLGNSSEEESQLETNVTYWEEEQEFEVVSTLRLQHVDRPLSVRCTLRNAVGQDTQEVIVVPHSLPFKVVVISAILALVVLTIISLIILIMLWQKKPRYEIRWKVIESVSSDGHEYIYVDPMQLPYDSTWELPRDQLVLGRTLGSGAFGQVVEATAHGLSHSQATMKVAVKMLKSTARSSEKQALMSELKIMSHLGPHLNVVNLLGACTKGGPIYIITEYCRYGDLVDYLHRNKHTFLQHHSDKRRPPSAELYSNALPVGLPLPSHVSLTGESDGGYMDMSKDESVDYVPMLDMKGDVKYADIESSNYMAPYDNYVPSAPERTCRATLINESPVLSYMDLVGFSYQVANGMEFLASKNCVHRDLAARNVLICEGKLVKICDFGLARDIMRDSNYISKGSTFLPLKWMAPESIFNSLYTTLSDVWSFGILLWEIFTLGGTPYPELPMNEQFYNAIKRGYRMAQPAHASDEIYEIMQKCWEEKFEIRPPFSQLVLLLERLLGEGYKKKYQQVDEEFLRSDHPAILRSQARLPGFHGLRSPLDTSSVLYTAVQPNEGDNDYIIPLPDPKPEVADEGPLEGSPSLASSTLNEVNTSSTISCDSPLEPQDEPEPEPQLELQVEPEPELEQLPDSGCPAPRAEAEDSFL
- test_summary: IC50 determination for inhibitors of PDGFR kinase (IMAP fluorescence polarization)
- stated_conditions: 48 uM ATP, room temperature, 60 minutes, read-out: IC50 PDGFR kinase inhibition
pIC50: −log10 of the molar value.
Could you please report measured pIC50 for the items listed next?

Lab note: need pIC50 with human recombinant PDGFR beta (Homo sapiens, UniProt P09619) for entry O=C(Nc1ccc(Cl)c(C(=O)Nc2cnc3[nH]ccc3c2)c1)c1cccc(-c2ccccc2)c1 , please look it up. 7.85

Moving on to Cc1ccc(NC(=O)c2cccc(-c3ccccc3)c2)cc1C(=O)Nc1cnc2[nH]cnc2c1 5.95

Now this one: O=C(Nc1ccc(N2CCOCC2)cc1)c1ccc(Cl)c(C(=O)Nc2cnc3[nH]ccc3c2)c1 6.00 to 8.00

Consider next the molecule O=C(Nc1ccc(Cl)c(C(=O)Nc2cnc3[nH]ccc3c2)c1)c1ccc(-c2ccccc2)cc1 in the same way. 6.00 to 8.00

Request: CN(C)CCOc1cccc(-c2ccc(C(=O)Nc3ccc(Cl)c(C(=O)Nc4cnc5[nH]ccc5c4)c3)cc2)c1 6.00 to 8.00

Another molecule to check: O=C(Nc1ccc(Cl)c(C(=O)Nc2cnc3[nH]ccc3c2)c1)c1ccc(N2CCOCC2)cc1 6.00 to 8.00

----------
Please go through the items and note down their IC50.
- target_of_assay: mouse full-length Src protein (Mus musculus)
- Sequence (P05480 whole entry): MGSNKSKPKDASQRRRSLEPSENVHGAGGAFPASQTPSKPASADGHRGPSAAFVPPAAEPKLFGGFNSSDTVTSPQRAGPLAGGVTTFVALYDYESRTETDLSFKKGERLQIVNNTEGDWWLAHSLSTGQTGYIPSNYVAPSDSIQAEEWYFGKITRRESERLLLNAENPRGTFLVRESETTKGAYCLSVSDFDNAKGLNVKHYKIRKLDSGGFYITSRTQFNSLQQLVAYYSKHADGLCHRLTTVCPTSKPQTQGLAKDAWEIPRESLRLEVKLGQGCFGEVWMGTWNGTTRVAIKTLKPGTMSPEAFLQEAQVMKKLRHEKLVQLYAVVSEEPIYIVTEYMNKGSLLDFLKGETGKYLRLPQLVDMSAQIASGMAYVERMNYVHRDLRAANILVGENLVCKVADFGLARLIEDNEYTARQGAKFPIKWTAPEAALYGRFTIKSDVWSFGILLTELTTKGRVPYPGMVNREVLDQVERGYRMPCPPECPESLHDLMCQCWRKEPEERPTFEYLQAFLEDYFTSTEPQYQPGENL

Which measured IC50 value corresponds to O=C(Nc1ccc(Cl)c(C(=O)Nc2cnc3[nH]ccc3c2)c1)c1cccc(-c2ccccc2)c1 ? 0.005 to 1 µM

Param item: O=C(Nc1ccc(Cl)c(C(=O)Nc2cnc3[nH]ccc3c2)c1)c1cccc(N2CCOCC2)c1 0.005 to 1 µM

Same for O=C(Nc1ccc(Cl)c(C(=O)Nc2cnc3[nH]ccc3c2)c1)c1ccc(N2CCOCC2)cc1 0.189 µM

Request: Cc1n[nH]c(C)c1-c1ccccc1C(=O)Nc1ccc(Cl)c(C(=O)Nc2cnc3[nH]ccc3c2)c1 0.005 to 1 µM

Field entry: Cc1c(C(=O)Nc2ccc(Cl)c(C(=O)Nc3cnc4[nH]ccc4c3)c2)cnn1-c1ccccc1 0.005 to 1 µM

What about Cc1ccc(NC(=O)c2ccccc2)cc1C(=O)Nc1cnc2[nH]cnc2c1 ? 0.01 µM

Now consider Cc1ccc(NC(=O)c2ccc(-c3ccccc3)cc2)cc1C(=O)Nc1cnc2[nH]cnc2c1 . 0.005 to 1 µM

Do the same for O=C(Nc1ccc(Cl)c(C(=O)Nc2cnc3[nH]ccc3c2)c1)c1ccc(-c2ccccc2)cc1 please 0.005 to 1 µM
